Data credit: patent US5079263A

target_desc: PMN elastase (Homo sapiens, UniProt P08246)
Construct: The elastase was isolated from human leukocytes; from tissue; host or cells: human leukocytes
Sequence (P08246 30-247 limits assumed): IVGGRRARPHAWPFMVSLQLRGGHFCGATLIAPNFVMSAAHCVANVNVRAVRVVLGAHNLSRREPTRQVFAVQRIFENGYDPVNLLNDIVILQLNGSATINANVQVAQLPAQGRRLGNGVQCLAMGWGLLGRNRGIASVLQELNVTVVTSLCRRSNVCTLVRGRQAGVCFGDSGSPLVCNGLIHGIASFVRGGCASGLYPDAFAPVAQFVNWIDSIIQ
procedure_details: Assay for Elastase from Polymorphonuclear Granulocytes (PMN Elastase)
Type: biochemical
stated_conditions: 1 hour preincubation with enzyme; substrate MeO-Suc-Ala-Ala-Pro-Val-pNA; 15 minutes; 405 nm; maximum 100 μg/ml; read-out: IC50 (inhibiting effect on PMN elastase) (converted)
measured_endpoint: log10(IC50) (log10 of the value in µM)
Reminder: these figures are log10 of reported IC50, in µM before transformation.

compound	log10(IC50)
CCCC[C@@H](C)/C=C(C)/C=C(\C)C(=O)Nc1cc(/C=C/C=C/C=C/C(=O)NC2=C(O)CCC2=O)ccc1O [Compound (2)]	0.78
CCCC[C@@H](C)/C=C(C)/C=C(\C)C(=O)Nc1cccc(/C=C/C=C/C=C/C(=O)NC2=C(O)CCC2=O)c1 [Compound (3)]	0.85

Hey, quick one: what's log10(IC50) for each of these?
1. Nc1ccc(/C=C/C=C/C=C/C(=O)NC2=C(O)CCC2=O)cc1 [Compound (5)]
2. CCCCC(C)C=C(C)C=C(C)C(=O)NC1=CC(O)(C=CC=CC=CC(=O)NC2=C(O)CCC2=O)C2OC2C1=O (centres unmarked) [Manumycin, manumycin]
3. CCCC[C@@H](C)/C=C(C)/C=C(\C)C(=O)Nc1cc(/C=C/C=C/C=C/C(=O)NC2=C(O)CCC2=O)c(O)cc1O [Compound (1)]

## Result
1. 2.13
2. 0.90
3. 0.67
